Target: c-Myc protein (Homo sapiens, UniProt P01106)
Construct: degradation of myc and GSPT1 proteins in HL60 cells; endogenous in cells; host or cells: HL60
Sequence (P01106 whole entry): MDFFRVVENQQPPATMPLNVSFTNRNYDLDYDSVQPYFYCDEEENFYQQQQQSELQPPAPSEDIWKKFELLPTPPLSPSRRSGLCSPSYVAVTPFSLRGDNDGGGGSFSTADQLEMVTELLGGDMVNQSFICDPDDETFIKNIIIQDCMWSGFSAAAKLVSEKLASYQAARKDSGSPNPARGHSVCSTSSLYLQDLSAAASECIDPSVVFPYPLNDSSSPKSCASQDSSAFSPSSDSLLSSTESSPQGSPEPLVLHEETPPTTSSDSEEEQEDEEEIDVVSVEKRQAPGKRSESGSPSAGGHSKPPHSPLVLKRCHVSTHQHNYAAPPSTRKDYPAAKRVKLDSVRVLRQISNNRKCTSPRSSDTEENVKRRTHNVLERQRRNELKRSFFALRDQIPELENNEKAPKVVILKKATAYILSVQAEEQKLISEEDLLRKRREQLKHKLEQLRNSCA
Assay: c-Myc protein degradation in HL60 cells (Western blot)
Type: cell-based
Conditions: HL-60, compound at 10 nM, 24 h, gray value relative to Ctrl (DMSO), read-out: Remaining amount of c-Myc protein (@10 nM/Ctrl)
Entries and their remaining activity at 0.01 µM values follow.

# count of solved cases: 2
| molecule | remaining activity at 0.01 µM |
| --- | --- |
| O=C1CCC(N2Cc3cc(CNCC4CCN(c5ncc(-c6ccc(F)cc6)cc5F)CC4)ccc3C2=O)C(=O)N1 (stereo not shown) | 3% |
| O=C1CCC(N2Cc3cc(CNCC4CCN(c5cnc(-c6cccc7ccccc67)nc5)CC4)ccc3C2=O)C(=O)N1 (stereo not shown) | 0% |

Request: remaining activity at 0.01 µM, test system c-Myc protein (Homo sapiens, UniProt P01106), entry O=C1CCC(N2Cc3cc(CNCC4CCN(c5ncc(-c6ccccc6Cl)cc5F)CC4)ccc3C2=O)C(=O)N1 (stereo not shown)
16%

Request: remaining activity at 0.01 µM, test system c-Myc protein (Homo sapiens, UniProt P01106), entry COc1cccc(-c2cnc(N3CCC(CNCc4ccc5c(c4)CN(C4CCC(=O)NC4=O)C5=O)CC3)c(F)c2)c1 (stereo not shown)
0%

Request: remaining activity at 0.01 µM, test system c-Myc protein (Homo sapiens, UniProt P01106), entry O=C1CCC(N2Cc3cc(NC(=O)CC4CCN(c5ccc(-c6cccc7cccnc67)cn5)CC4)ccc3C2=O)C(=O)N1 (stereo not shown)
23%

Request: remaining activity at 0.01 µM, test system c-Myc protein (Homo sapiens, UniProt P01106), entry O=C1CCC(N2Cc3cc(CNCC4CCN(c5ncc(-c6cccc7ccccc67)s5)CC4)ccc3C2=O)C(=O)N1 (stereo not shown)
0%

Request: remaining activity at 0.01 µM, test system c-Myc protein (Homo sapiens, UniProt P01106), entry O=C1CCC(N2Cc3cc(CNCC4CCN(c5ncc(-c6cccc(Cl)c6)cc5F)CC4F)ccc3C2=O)C(=O)N1 (stereo not shown)
11%

---

System: HL60 cells
Experiment: Anti-proliferation on HL60 cells (CellTiter-Glo, 3 days)
Type: cell-based
Details: Homo sapiens, HL-60, 72 h, 3 days incubation, CTG luminescence, IC50 by XLfit, read-out: HL60 cells Proliferation inhibitory activity
measure: pIC50
Would you please state pIC50, meaning minus log10 of the concentration in mol/L, as a bare number?

# count of solved cases: 2
| compound | assayed_system | measure | value_reported |
| --- | --- | --- | --- |
| O=C1C[C@H](N2Cc3cc(CNCC4CCN(c5ncc(-c6cccc(F)c6)cc5F)CC4)ccc3C2=O)C(=O)N1 | HL60 cells | pIC50 | 5.01 |
| O=C1CCC(NS(=O)(=O)c2ccc(CNCC3CCN(c4ncc(-c5cccc(Cl)c5)cc4C(F)(F)F)CC3)cc2)C(=O)N1 (stereo not drawn) | HL60 cells | pIC50 | 5.14 |

For O=C1C[C@H](N2Cc3cc(CNCC4CCN(c5ncc(-c6cccc(F)c6)cc5C(F)(F)F)CC4)ccc3C2=O)C(=O)N1 , what is its reported pIC50?
5.00

---

Tested on: HL60 cells
Assay: Anti-proliferation on HL60 cells (CellTiter-Glo, 3 days)
Assay type: cell-based
Settings: Homo sapiens, HL-60, 72 h, 3 days incubation, CTG luminescence, IC50 by XLfit, read-out: HL60 cells Proliferation inhibitory activity
Entries and their IC50 values follow.
Numbers only; they are read as nM.

# count of solved cases: 5
| compound | unit_spec | value_reported |
| --- | --- | --- |
| Cc1nc2cc(CNCC3CCN(c4ncc(-c5cccc(Cl)c5)cc4C(F)(F)F)CC3)ccc2c(=O)n1C1CCC(=O)NC1=O (stereo not drawn) | nM | 7320 |
| O=C1CCC(n2nc3cc(CNCC4CCN(c5ncc(-c6cccc(F)c6)cc5F)CC4)ccn3c2=O)C(=O)N1 (stereo not drawn) | nM | 12300 |
| O=C1CCC(N2Cc3cc(CNCC4(F)CCN(c5ncc(-c6cccc(Cl)c6)cc5F)CC4)ccc3C2=O)C(=O)N1 (stereo not drawn) | nM | 2.6 |
| O=C1CCC(N2Cc3cc(C(=O)NCC4CCN(c5ccc(-c6cccc7cccnc67)cn5)CC4)ccc3C2=O)C(=O)N1 (stereo not drawn) | nM | 0.2 |
| O=C1CCC(N2Cc3cc(NC(=O)CC4CCN(c5ccc(-c6cccc7ccccc67)nn5)CC4)ccc3C2=O)C(=O)N1 (stereo not drawn) | nM | 12 |

For O=C1CCC(N2Cc3cc(CNCC4CCN(c5ncc(-c6cccc7ccccc67)s5)CC4)ccc3C2=O)C(=O)N1 (stereo not drawn) , what is its reported IC50?
0.3

For O=C1CCC(N2Cc3cc(NC(=O)CC4CCN(c5ncc(C6CC6)cn5)CC4)ccc3C2=O)C(=O)N1 (stereo not drawn) , what is its reported IC50?
1.5

For O=C1CCC(N2Cc3cc(OCCC4CCN(c5ncc(-c6cccc(Cl)c6)cc5C(F)(F)F)CC4)ccc3C2=O)C(=O)N1 (stereo not drawn) , what is its reported IC50?
175

For O=C1CCC(NC(=O)c2ccc(CNCC3CCN(c4ncc(-c5cccc(Cl)c5)cc4C(F)(F)F)CC3)nc2)C(=O)N1 (stereo not drawn) , what is its reported IC50?
11700

For O=C1CCC(N2Cc3cc(NC(=O)CC4CCN(CC(=O)N5CCCc6ccccc65)CC4)ccc3C2=O)C(=O)N1 (stereo not drawn) , what is its reported IC50?
7.9

For O=C1CCC(N2Cc3cc(NC(=O)CC4CCN(C(=O)NCc5cccc6ccccc56)CC4)ccc3C2=O)C(=O)N1 (stereo not drawn) , what is its reported IC50?
190
